testTarget: full-length SARM1 (FL-SARM1) (Homo sapiens, UniProt Q6SZW1)
Sequence (Q6SZW1 28-724): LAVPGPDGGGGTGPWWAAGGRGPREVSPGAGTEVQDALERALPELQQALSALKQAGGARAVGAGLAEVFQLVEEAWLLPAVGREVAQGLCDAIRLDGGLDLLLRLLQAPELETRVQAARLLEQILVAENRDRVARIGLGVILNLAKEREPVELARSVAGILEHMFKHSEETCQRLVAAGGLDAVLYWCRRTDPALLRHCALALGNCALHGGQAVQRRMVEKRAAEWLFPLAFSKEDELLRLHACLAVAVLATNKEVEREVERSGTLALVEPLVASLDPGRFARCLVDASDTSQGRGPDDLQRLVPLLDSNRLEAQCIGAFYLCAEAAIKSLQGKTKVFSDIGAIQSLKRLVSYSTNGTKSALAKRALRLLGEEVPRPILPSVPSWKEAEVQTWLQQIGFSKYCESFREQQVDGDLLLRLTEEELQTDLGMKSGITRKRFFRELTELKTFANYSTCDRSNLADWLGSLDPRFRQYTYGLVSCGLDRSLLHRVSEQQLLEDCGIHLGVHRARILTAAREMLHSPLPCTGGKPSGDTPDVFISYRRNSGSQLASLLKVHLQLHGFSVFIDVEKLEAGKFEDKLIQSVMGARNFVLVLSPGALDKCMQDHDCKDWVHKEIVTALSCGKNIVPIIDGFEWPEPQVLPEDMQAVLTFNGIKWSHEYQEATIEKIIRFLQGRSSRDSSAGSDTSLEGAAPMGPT
testName: FL-SARM1 cellular lysate assay (NAD/NADH-Glo detection of remaining NAD+, NMN-activated)
studyConditions: Activity (μM) (IC50), 11 point curve
# maps each entry to its IC50

compound | IC50
Cc1cc(F)c(NC(=O)N2CCOc3cccnc3C2C)cc1-c1cccnn1 (centres unmarked) | 6 µM
Cc1ccc(NC(=O)[C@@H]2C[C@@H]3C[C@@H]3C2)cc1-c1ncc(F)cn1 | 1.2 µM
Cc1ccc(NC(=O)C(C)(C)C)cc1-c1ccccn1 | 19 µM
Cc1ccc(NC(=O)C2CC(C(F)(F)F)C2)cc1-c1ccccn1 (mixture of isomers) | 2.6 µM
Cc1ccc(NC(=O)[C@@H]2C[C@H]3CC[C@@H]2N3c2ccccn2)cc1-c1ncc(F)cn1 (racemic) | 4.9 µM
Cc1ccc(NC(=O)N2C3CCCC2C3)cc1-c1ncccn1 | 0.5 µM
COc1cccnc1-c1cc(NC(=O)N2C3CCCC2C3)ccc1C | 12 µM
Cc1cc(F)c(NC(=O)N2[C@@H]3C[C@@H](C)C[C@H]2C3)cc1-c1ccccn1 | 0.02 µM

All figures here come from patent US20250171462A1.
